The measurements presented in this section are drawn from patent US7704995B2.

Would you kindly list pIC50 for each of these compounds?
Molecular target: Chk1 (Homo sapiens)
Construct: purchased Upstate Biotechnology
Sequence (O14757 1-476): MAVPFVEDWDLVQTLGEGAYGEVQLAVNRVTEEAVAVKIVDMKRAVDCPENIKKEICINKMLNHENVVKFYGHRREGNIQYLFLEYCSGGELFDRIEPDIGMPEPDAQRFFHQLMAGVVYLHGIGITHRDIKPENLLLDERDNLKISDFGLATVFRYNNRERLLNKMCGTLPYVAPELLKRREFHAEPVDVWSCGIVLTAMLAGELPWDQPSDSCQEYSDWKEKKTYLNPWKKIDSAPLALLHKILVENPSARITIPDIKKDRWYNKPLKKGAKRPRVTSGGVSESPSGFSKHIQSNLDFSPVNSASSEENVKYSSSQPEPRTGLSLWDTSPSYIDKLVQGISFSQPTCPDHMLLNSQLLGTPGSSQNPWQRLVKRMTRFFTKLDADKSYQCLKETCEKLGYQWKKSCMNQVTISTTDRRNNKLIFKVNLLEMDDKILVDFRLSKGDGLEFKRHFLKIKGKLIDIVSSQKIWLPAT
Assay: Chk1 kinase assay: incorporation of γ-33P ATP into immobilized myelin basic protein
Format: biochemical
Conditions: Table 11; Chk1 only; read-out: Chk1 IC50
pIC50: −log10 of the molar value.

Query string: Would you please give the reported pIC50 of C/C(=N\Nc1ccc(S(C)(=O)=O)cc1)c1nc(-c2cccc(C(=O)NCc3ccccc3)c2)cnc1N with Chk1 (Homo sapiens)?
Result string: ≤ 5.00

Query string: State recorded pIC50 with Chk1 (Homo sapiens), entry Nc1ncc(-c2cccc(C(=O)NCc3ccccc3)c2)nc1/C=N/O , no comment.
Result string: 5.00 to 6.00

Query string: Report pIC50 on Chk1 (Homo sapiens) for this entry: CC(C)(C)OC(=O)N1CCC(N2CC[C@H](NC(=O)c3nc(-c4cccc(C(=O)NCc5ccccc5)c4)cnc3N)C2)CC1
Result string: 5.00 to 6.00

Query string: Provide pIC50, recorded with Chk1 (Homo sapiens), of Nc1ncc(-c2cccc(CN[C@H]3CCc4ccccc43)c2)nc1C(=O)NCCN1CCCCC1
Result string: 5.00 to 6.00

Query string: Report pIC50 from Chk1 (Homo sapiens) testing of Nc1ncc(-c2cccc(CO)c2)nc1-c1nc(C2CCNCC2)n[nH]1
Result string: 5.00 to 6.00

Query string: Provide Chk1 (Homo sapiens) pIC50 reading for Nc1ncc(-c2cccc(CO)c2)nc1-c1nc(C2CNCCO2)n[nH]1 (centres unmarked) .
Result string: 6.00 to 7.30

Query string: Provide pIC50, recorded with Chk1 (Homo sapiens), of Cc1nnc(-c2nc(-c3cccc(CO)c3)cnc2N)[nH]1
Result string: 5.00 to 6.00

Query string: Lab note: record pIC50 of CCNc1ncc(-c2cccc(C(=O)NCc3ccccc3)c2)nc1C(=O)N[C@H]1CCN(CC)C1 tested on Chk1 (Homo sapiens).
Result string: ≤ 5.00

Query string: Recall the reported pIC50 of CNC(=O)c1nc(-c2ccc3ccnc(NCc4ccccc4)c3c2)cnc1N when tested on Chk1 (Homo sapiens).
Result string: 5.00 to 6.00

Query string: # assay system Chk1 (Homo sapiens): give pIC50 of CC(C)(C)OC(=O)N1CC[C@H](NC(=O)c2nc(-c3cccc(C(=O)NCCc4ccccc4)c3)cnc2N)C1
Result string: ≤ 5.00

Query string: Please look at C[C@H](NC(=O)c1cccc(-c2cnc(N)c(C(=O)N[C@H]3CCNC3)n2)c1)c1ccccc1 and tell me its recorded pIC50 on Chk1 (Homo sapiens).
Result string: 6.00 to 7.30

Query string: Tell me pIC50 of Nc1ncc(-c2cccc(C(=O)N[C@@H]3c4ccccc4C[C@@H]3O)c2)nc1C(=O)NCCc1c[nH]cn1 when tested on Chk1 (Homo sapiens).
Result string: 6.00 to 7.30

Query string: Write pIC50 of CNC(=O)c1nc(-c2cccc(CN[C@@H]3CCC[C@H]3OCc3ccccc3)c2)cnc1N ; system used: Chk1 (Homo sapiens)
Result string: 6.00 to 7.30

Query string: Output reported pIC50 of the compound COc1ccc(C(=O)c2nc(-c3cccc(C(=O)NCc4ccccc4)c3)cnc2N)c(OC)c1 on Chk1 (Homo sapiens).
Result string: ≤ 5.00

Query string: Enter recorded pIC50 with Chk1 (Homo sapiens) for Nc1ncc(-c2cccc(C(=O)NCc3ccccc3)c2)nc1C(=O)NC1CCNCC1 here.
Result string: 6.00 to 7.30

Query string: Supply pIC50 measured with Chk1 (Homo sapiens) for Nc1ncc(-c2cccc(C(=O)N[C@H]3CCc4ccccc43)c2)nc1C(=O)N[C@H]1CCNC1 .
Result string: > 7.30

Query string: Find pIC50 for Nc1ncc(-c2cccc(C(=O)NCc3ccccc3)c2)nc1C(=O)NCCNC(=O)c1cnc2ccccc2n1 on Chk1 (Homo sapiens) and write it down.
Result string: ≤ 5.00

Query string: Return reported pIC50 for target or system Chk1 (Homo sapiens), item CNC(=O)c1nc(-c2cc(C(=O)N[C@H]3CCc4ccccc43)cc(C(=O)OC)c2)cnc1N .
Result string: 6.00 to 7.30

Query string: Supply pIC50 measured with Chk1 (Homo sapiens) for Nc1ncc(-c2cccc(CO)c2)nc1-c1nnc(-c2ccco2)[nH]1 .
Result string: 6.00 to 7.30

Query string: Find the measured pIC50 of CN(C)c1ccc(C(=O)NCCCNC(=O)c2nc(-c3cccc(C(=O)NCc4ccccc4)c3)cnc2N)cc1 with Chk1 (Homo sapiens) as test system.
Result string: ≤ 5.00

Query string: # lookup: Chk1 (Homo sapiens) pIC50, key = C[C@H](NC(=O)c1cccc(-c2cnc(N)c(C(=O)N[C@H]3CCN(C(=O)OC(C)(C)C)C3)n2)c1)c1ccccc1
Result string: 5.00 to 6.00

Query string: Report its pIC50 with Chk1 (Homo sapiens) as the test system: CCN1CC[C@H](NC(=O)c2nc(-c3cccc(C(=O)N[C@H]4c5ccccc5C[C@H]4O)c3)cnc2N)C1
Result string: 5.00 to 6.00

Query string: Fetch value of pIC50 on Chk1 (Homo sapiens) for COc1ccc(CNC(=O)c2cccc(-c3cnc(N)c(C(=O)N[C@H]4CCN(C(=O)OC(C)(C)C)C4)n3)c2)cc1 .
Result string: 6.00 to 7.30

Query string: Write down measured pIC50 (Chk1 (Homo sapiens)) for this compound. CNC(=O)c1nc(-c2cccc(CN[C@H]3CCc4cc(-c5cccs5)ccc43)c2)cnc1N
Result string: > 7.30

Query string: Report value only: pIC50, Chk1 (Homo sapiens), CN(C)c1ccc(C(=O)NCCNC(=O)c2nc(-c3cccc(C(=O)NCc4ccccc4)c3)cnc2N)cc1
Result string: ≤ 5.00

Query string: Lab note: Chk1 (Homo sapiens) assay, enter pIC50 for Nc1ncc(-c2cccc(CN[C@H]3CCc4ccccc43)c2)nc1-c1nc([C@H]2CCCNC2)n[nH]1 here
Result string: > 7.30
